The measurements presented in this section are drawn from PubChem BioAssay (NCATS).

method.description: BET inhibitor-based combinations targeting novel dependencies in MECOM-rearranged (r) AML: AML-191 cell line (AID 2202236; also: nearly all actives have a fitted effect of over 35% in size)
condition.label: AML-191 viability, CellTiter-Glo luminescence, 48 h; series mostly up to 46 µM
Results filed as inconclusive are left out. Calls of active or inactive are those of the source. Calls follow the shape of the dose curve; as a rule, active = well fitted inhibition curve with a large enough effect; inconclusive = small, poorly fitted or top-dose-only effect; inactive = flat fitted curve, though single readings scatter.
Lab note: assign the record to one of active, inactive

Completed entries (count: 5):
[
  {
    "compound": "CN(C(=O)c1c(O)c2ccccc2n(C)c1=O)c1ccccc1",
    "class.label": "inactive"
  },
  {
    "compound": "C=CC[C@@H]1/C=C(\\C)C[C@H](C)C[C@H](OC)[C@H]2O[C@@](O)(C(=O)C(=O)N3CCCC[C@H]3C(=O)O[C@H](/C(C)=C/[C@@H]3CC[C@@H](O)[C@H](OC)C3)[C@H](C)[C@@H](O)CC1=O)[C@H](C)C[C@@H]2OC",
    "class.label": "active"
  },
  {
    "compound": "C[C@H](NC(=O)CCC(F)(F)F)C(=O)N[C@@H]1C(=O)N(CCO)c2ncccc2-c2ccccc21",
    "class.label": "inactive"
  },
  {
    "compound": "O=C(NCc1ccccc1)c1csc(Nc2ccncn2)n1",
    "class.label": "active"
  },
  {
    "compound": "c1ccc2[nH]c(-c3cscn3)nc2c1",
    "class.label": "active"
  }
]

Next item in the queue.
# input I'd appreciate the recorded outcome for `C=CC(=O)Nc1ccc2ncnc(Nc3ccc(OCc4cccc(F)c4)c(Cl)c3)c2c1` from this test.
# output active

---

method.description: BET inhibitor-based combinations targeting novel dependencies in MECOM-rearranged (r) AML: AML-194 cell line (AID 2202237; also: nearly all actives have a fitted effect of over 40% in size)
condition.label: AML-194 (MECOM-r AML) viability, CellTiter-Glo, 48 h; series mostly up to 46 µM
Protocol: Ecotropic viral insertion site 1 (EVI1) is located on chromosome 3q26.2 as part of the MECOM (MDS and EVI1 complex) locus. […] A collection of 2480 mechanistically annotated dugs (MIPE v5.0) was used to screen four 3q26.2 rearranged AML cell lines and three non-3q26.2 rearranged AML cell lines. […] Cell viability was determined by luminescence based, Cell Titer Glo assay (Promega). […] Luminescence readings were taken using a Viewlux (PerkinElmer) with a 2 s exposure time per plate. […]
Records with an inconclusive call do not appear. The source made the active and inactive calls. Calls follow the shape of the dose curve; as a rule, active = well fitted inhibition curve with a large enough effect; inconclusive = small, poorly fitted or top-dose-only effect; inactive = flat fitted curve, though single readings scatter.
Lab note: assign the record to one of t for active, f for inactive

Completed entries (count: 4):
[
  {
    "molecule": "O=C(/C=C/c1cccnc1)NCCCCC1CCN(C(=O)c2ccccc2)CC1",
    "class.label": "f"
  },
  {
    "molecule": "Cn1ncc(Cl)c1-c1cc(C(=O)NC(CN)Cc2ccc(F)c(F)c2)oc1Cl (configuration not stated)",
    "class.label": "t"
  },
  {
    "molecule": "CC[C@H](C)C(=O)O[C@H]1C[C@H](O)C=C2C=C[C@H](C)[C@H](CC[C@@H](O)C[C@@H](O)CC(=O)O)[C@H]21",
    "class.label": "f"
  },
  {
    "molecule": "CCC(=O)N1CCOc2c(cc(-c3cc(OC)cc(OC)c3)cc2C(=O)N[C@H]2CCCN(C)C2)C1",
    "class.label": "t"
  }
]

# input I'd appreciate the recorded outcome for `COCCNCCCn1c(C(=O)CF)c(-c2ccc(C)cc2)c2c(N)ncnc21` from this test.
# output f

# input Cool, now COc1ccc(-c2oc3c(CC=C(C)C)c(OC4O[C@H](CO)[C@@H](O)[C@H](O)[C@H]4O)cc(O)c3c(=O)c2OC2O[C@@H](C)[C@H](O)[C@@H](O)[C@H]2O)cc1 (some centres not stated)
# output f

# input Cool, now `CCCN(CCC)C(=O)C1=Cc2ccc(-c3ccc(C(=O)N4CCCC4)cc3)cc2N=C(N)C1`
# output t

---

method.description: qHTS for Inhibitors of the Aldehyde Dehydrogenase Family (ALDH1A2, ALDH1A3, ALDH2, ALDH3A1) (AID 2061307); also: nearly all actives have a fitted effect of over 50% in size
condition.label: ALDH inhibition qHTS; series mostly up to 50.3 µM
Results filed as inconclusive are left out. Calls of active or inactive are those of the source. Calls come from the whole dose curve; as a rule, active = well fitted inhibition curve with a large enough effect; inconclusive = small, poorly fitted or top-dose-only effect; inactive = no such curve, though single readings can be large or run the other way.
Lab note: assign the record to one of True (active), False (inactive)

Completed entries (count: 5):
[
  {
    "compound": "O=C(CSc1nnc(-c2ccccn2)o1)Nc1ccc2c(c1)OCCO2",
    "class.label": "True"
  },
  {
    "compound": "Cc1ccc(-c2cc3c(nn2)-c2ccccc2C3=O)cc1",
    "class.label": "False"
  },
  {
    "compound": "O=C1Nc2ccc(Cl)cc2/C1=C\\c1cc(Cl)c(O)c(Cl)c1",
    "class.label": "True"
  },
  {
    "compound": "COc1ccc2nc(-c3ccc(F)cc3)sc2c1",
    "class.label": "True"
  },
  {
    "compound": "Cc1ccc(OCCn2c(CCNC(=O)c3cccc(C(F)(F)F)c3)nc3ccccc32)cc1",
    "class.label": "False"
  }
]

# input I'd appreciate the recorded outcome for `Cc1ccc(-c2cc(-c3c(Cc4ccc(S(N)(=O)=O)c(F)c4)c(CC4CC4)nn3-c3nc(C(=O)O)cs3)ccc2F)s1` from this test.
# output True

# input Cool, now `CCOCCCNC(=O)Nc1cc(C(=O)NCc2ccc(C(C)C)cc2)ccc1N1CCCC1`
# output True

# input Cool, now `Oc1ccc(N2CCN(Cc3ccc(OCCCN4CCCCC4)cc3)CC2)cc1`
# output False

# input Cool, now `N#Cc1cccc(NC(=O)c2cc3c(s2)-c2ccc(Cl)cc2SC3)c1`
# output False

# input Cool, now `CC(=O)c1c(C)n(-c2ccc(Cl)cc2)c2ccc(OC(=O)COc3ccccc3)cc12`
# output False

# input Cool, now `CC(=O)Nc1sc2c(c1-c1ccc(N(C)C)cc1)CCNC2`
# output True

# input Cool, now `N#Cc1nc(Nc2ccc(F)cc2)nc(NC2CCCC2)n1`
# output True

---

method.description: BET inhibitor-based combinations targeting novel dependencies in MECOM-rearranged (r) AML: UCSD-AML1 cell line (AID 2202235); also: nearly all actives have a fitted effect of over 40% in size
condition.label: UCSD-AML1 AML cells viability, CellTiter-Glo, 48 h; series mostly up to 46 µM
Inconclusive results are not listed. Activity calls are given as the source filed them. Calls come from the whole dose curve; as a rule, active = well fitted inhibition curve with a large enough effect; inconclusive = small, poorly fitted or top-dose-only effect; inactive = no such curve, though single readings can be large or run the other way.
Lab note: assign the record to one of active, inactive

# input I'd appreciate the recorded outcome for `CC(C)n1c(/C=C/[C@H](O)C[C@H](O)CC(=O)O)c(-c2ccc(F)cc2)c2ccccc21` from this test.
# output active

# input Cool, now `Cn1cc(/C=C/C(=O)c2cccc(F)c2)cc1/C=C/C(=O)NO`
# output active

# input Cool, now O=C1CC(c2c[nH]c3ccc(F)cc23)C(=O)N1 (centres undefined)
# output inactive

# input Cool, now `CN(C)C(N)=NC(=N)N`
# output inactive

# input Cool, now `OCCn1cc(-c2ccc3c(c2)CC/C3=N\O)c(-c2ccncc2)n1`
# output inactive

# input Cool, now `NC(=O)c1nc(F)c[nH]c1=O`
# output inactive

# input Cool, now `CSc1ccc(C(=O)/C=C/c2cc(C)c(OC(C)(C)C(=O)O)c(C)c2)cc1`
# output inactive

# input Cool, now `Cc1ccc(Nc2ncc3c(n2)N(C)C(=O)N(c2cc(NC(=O)c4cccc(C(F)(F)F)c4)ccc2C)C3)cn1`
# output active

# input Cool, now `CNc1nc(-c2ccc3c(N)n[nH]c3c2)cc(N2C[C@@H](C(=O)NC3CCCCC3)CC[C@H]2C)n1`
# output active

---

method.description: BET inhibitor-based combinations targeting novel dependencies in MECOM-rearranged (r) AML: UCSD-AML1 cell line (AID 2202235); also: nearly all actives have a fitted effect of over 40% in size
condition.label: UCSD-AML1 AML cells viability, CellTiter-Glo, 48 h; series mostly up to 46 µM
Results filed as inconclusive are left out. Activity calls are given as the source filed them. Calls come from the whole dose curve; as a rule, active = well fitted inhibition curve with a large enough effect; inconclusive = small, poorly fitted or top-dose-only effect; inactive = no such curve, though single readings can be large or run the other way.
Lab note: assign the record to one of Y (active), N (inactive)

# input I'd appreciate the recorded outcome for `CCNC(=O)Nc1ccc(Oc2ncnc(N)c2/C=N/OC)cc1Cl` from this test.
# output Y

# input Cool, now `O=C(O)/C=C/c1ccc(Cn2ccnc2)cc1`
# output N

# input Cool, now `C=C1C(=O)O[C@@H]2[C@H]3C(C)=CC[C@@]34O[C@@]4(C)CC[C@@H]12`
# output Y

# input Cool, now `Cc1ccc(-c2nc(N)nc3c2nnn3Cc2cccc(CO[C@H]3CCOC3)n2)o1`
# output N

# input Cool, now CCC(C(=O)O)C1CCC(C)C(C(C)C(O)C(C)C(=O)C(CC)C2OC3(C=CC(O)[C@@]4(CC[C@](C)(C5CC[C@@](O)(CC)C(C)O5)O4)O3)C(C)CC2C)O1 (stereo partly specified)
# output Y

# input Cool, now `CCn1c(=O)c2c(nc(/C=C/c3ccc(OC)c(OC)c3)n2C)n(CC)c1=O`
# output N
